Attribution: ChEMBL document CHEMBL3272151

Experiment: Binding affinity to chymotrypsin (unknown origin) assessed as deacetylation
Conditions: Homo sapiens
Just a reminder that ties go to NO: only log K strictly below -0.7 counts as YES.

Here are 5 molecules together with their reported answers.
smiles-input: COc1ccc(C(=O)Oc2ccc([N+](=O)[O-])cc2)cc1
answer-label: YES
--
smiles-input: COC(=O)[C@@H](NC(=O)c1ccccc1)C(C)C
answer-label: NO
--
smiles-input: O=C(Oc1ccc([N+](=O)[O-])cc1)c1ccc(C(F)(F)F)cc1
answer-label: YES
--
smiles-input: NC(=O)C[C@@H](NC(=O)OCc1ccccc1)C(=O)Oc1ccc([N+](=O)[O-])cc1
answer-label: YES
--
smiles-input: O=C(CCc1c[nH]c2ccccc12)Oc1ccc([N+](=O)[O-])cc1
answer-label: NO

Prompt: Dear reviewer, please state whether COCC(=O)Oc1ccc([N+](=O)[O-])cc1 has log K strictly beneath -0.7.
Completion: NO

Prompt: Please indicate whether the reported log K of COC(=O)[C@H](Cc1ccccc1)NC(=O)c1ccccc1 is strictly below -0.7.
Completion: NO

Prompt: # check: log K < -0.7 for CCOC(=O)[C@H](Cc1ccc(O)cc1)NC(=O)c1ccccc1
Completion: NO

Prompt: I wonder whether CCCCC(=O)Oc1ccc([N+](=O)[O-])cc1 has log K below -0.7. Can you tell?
Completion: YES

Prompt: Is the reported log K for CC[C@H](NC(=O)c1ccccc1)C(=O)OC strictly below -0.7?
Completion: NO
